B1: PhoQ; a variant is named by its letters at X, in order, P23837 (parent)
chain: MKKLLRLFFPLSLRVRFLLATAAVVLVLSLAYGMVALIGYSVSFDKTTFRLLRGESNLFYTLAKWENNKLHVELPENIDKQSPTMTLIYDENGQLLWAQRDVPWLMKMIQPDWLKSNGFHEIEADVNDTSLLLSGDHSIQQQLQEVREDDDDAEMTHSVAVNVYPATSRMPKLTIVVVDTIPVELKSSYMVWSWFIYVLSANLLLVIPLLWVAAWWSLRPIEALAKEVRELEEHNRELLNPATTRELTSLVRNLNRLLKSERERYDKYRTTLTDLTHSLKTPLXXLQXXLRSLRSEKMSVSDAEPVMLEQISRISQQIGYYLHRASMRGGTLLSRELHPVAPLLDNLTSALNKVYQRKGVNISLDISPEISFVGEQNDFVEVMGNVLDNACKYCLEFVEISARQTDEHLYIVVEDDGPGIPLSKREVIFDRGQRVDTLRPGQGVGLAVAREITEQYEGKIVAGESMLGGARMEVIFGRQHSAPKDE

Variants of: B1
Assay: enrichment ratio after two sorts for PhoP signalling (ratio (wild type AVST 3.29)); higher = more functional
Details: with PhoP (E. coli)
Whole data set: some 140,000 sequences, median “enrichment ratio after two sorts for PhoP signalling” near 0, cut for the highest 2% near 11. The entries come from a sample that favours the highest values as a whole.
Property: enrichment ratio

> print(dat)
    mutation.annotation          property  comparison.sign  experimental.result
 1                 KKLM  enrichment ratio                ≤                 0.25
 2                 LMID  enrichment ratio                ≤                 0.25
 3                 QGAG  enrichment ratio                ≤                 0.25
 4                 NHLM  enrichment ratio                ≤                 0.25
 5                 SYLG  enrichment ratio                =                 9.61
 6                 TLVA  enrichment ratio                ≤                 0.25
 7                 SGLG  enrichment ratio                =                 15.5
 8                 SQMG  enrichment ratio                =                 20.8
 9                 TFVR  enrichment ratio                ≤                 0.25
10                 SAMG  enrichment ratio                =                 5.01
11                 EQLG  enrichment ratio                ≤                 0.25
12                 YVWK  enrichment ratio                ≤                 0.25
13                 ADLM  enrichment ratio                =                 12.7
14                 IAET  enrichment ratio                ≤                 0.25
15                 HKLM  enrichment ratio                ≤                 0.25
16                 RIFK  enrichment ratio                =                 1.58
17                 SQLG  enrichment ratio                =                 19.1
18                 TGGL  enrichment ratio                =                 3.52
19                 LLVM  enrichment ratio                ≤                 0.25
20                 SYEG  enrichment ratio                ≤                 0.25
21                 SDIG  enrichment ratio                ≤                 0.25
22                 SAMS  enrichment ratio                =                 7.54
